Target Or Test System: UniProt P52699
Sequence (P52699 19-246, looked up, species assumed): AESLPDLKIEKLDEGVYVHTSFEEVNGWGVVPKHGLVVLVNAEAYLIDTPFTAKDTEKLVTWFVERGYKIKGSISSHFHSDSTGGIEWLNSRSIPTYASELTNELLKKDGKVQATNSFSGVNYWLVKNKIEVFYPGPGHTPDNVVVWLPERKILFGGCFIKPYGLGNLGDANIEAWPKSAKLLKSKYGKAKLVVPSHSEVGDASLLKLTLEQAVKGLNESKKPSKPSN
Test Details: Inhibition constant (Ki) measurement test, IMP-1
Assay type: biochemical
Measurement Conditions: imipenem substrate, enzyme 10 nM, 30° C., Lineweaver-Burk; read-out: Inhibition constant Ki IMP-1
Quantity Name: log10 Ki (log10 of the value in nM)
Values below are the log10 of the recorded Ki, with nM as the unit.

Q: For the compound `CCc1c(C(=O)O)c(S(N)(=O)=O)c(CC)n1C` , give its measured log10 Ki value.
A: 3.33

Q: For the compound `NS(=O)(=O)c1sc(Cl)cc1C(=O)O` , give its measured log10 Ki value.
A: 4.28

Q: For the compound `Cc1oc(C)c(S(N)(=O)=O)c1C(=O)O` , give its measured log10 Ki value.
A: 2.34

Q: For the compound `Cc1c(C(=O)O)c(S(N)(=O)=O)c(C)n1C` , give its measured log10 Ki value.
A: 3.09

Q: For the compound `CCc1oc(CC)c(S(N)(=O)=O)c1C(=O)O` , give its measured log10 Ki value.
A: 2.48

---

Target Or Test System: NDM-1 (Klebsiella pneumoniae, UniProt C7C422)
Sequence (C7C422 29-270, looked up, species assumed): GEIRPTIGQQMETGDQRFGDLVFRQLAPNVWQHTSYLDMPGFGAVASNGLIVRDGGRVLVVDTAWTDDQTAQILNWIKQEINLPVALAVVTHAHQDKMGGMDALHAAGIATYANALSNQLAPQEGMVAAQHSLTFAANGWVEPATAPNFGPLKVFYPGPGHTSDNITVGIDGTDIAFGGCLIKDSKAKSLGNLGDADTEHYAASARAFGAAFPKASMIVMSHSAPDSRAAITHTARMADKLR
Test Details: Inhibition constant (Ki) measurement test, NDM-1
Format: biochemical
Measurement Conditions: imipenem substrate, enzyme 10 nM, 30° C., Lineweaver-Burk; read-out: Inhibition constant Ki NDM-1
Quantity Name: pKi
// field semantics: pKi = negative decimal log of concentration (mol/L)

Previously resolved entries follow.
{"Compound": "Cc1oc(C)c(S(N)(=O)=O)c1C(=O)O [Compound A]", "Target Or Test System": "NDM-1 (Klebsiella pneumoniae, UniProt C7C422)", "pKi": 5.01}
{"Compound": "CCCc1oc(CCC)c(S(N)(=O)=O)c1C(=O)O [Compound G]", "Target Or Test System": "NDM-1 (Klebsiella pneumoniae, UniProt C7C422)", "pKi": 6.54}
{"Compound": "Cc1c(C(=O)O)c(S(N)(=O)=O)c(C)n1C [Compound E]", "Target Or Test System": "NDM-1 (Klebsiella pneumoniae, UniProt C7C422)", "pKi": 5.04}
{"Compound": "CCc1oc(CC)c(S(N)(=O)=O)c1C(=O)O [Compound F]", "Target Or Test System": "NDM-1 (Klebsiella pneumoniae, UniProt C7C422)", "pKi": 6.04}
{"Compound": "NS(=O)(=O)c1c(C2CCCC2)oc(C2CCCC2)c1C(=O)O [Compound H]", "Target Or Test System": "NDM-1 (Klebsiella pneumoniae, UniProt C7C422)", "pKi": 6.74}
{"Compound": "NS(=O)(=O)c1sccc1C(=O)O [B]", "Target Or Test System": "NDM-1 (Klebsiella pneumoniae, UniProt C7C422)", "pKi": 5.11}
{"Compound": "CCc1c(C(=O)O)c(S(N)(=O)=O)c(CC)n1C [Compound I]", "Target Or Test System": "NDM-1 (Klebsiella pneumoniae, UniProt C7C422)", "pKi": 6.08}
{"Compound": "NS(=O)(=O)c1sc(Cl)cc1C(=O)O [C]", "Target Or Test System": "NDM-1 (Klebsiella pneumoniae, UniProt C7C422)", "pKi": 4.71}

--- query ---
Q: For the compound Cc1c(C(=O)O)c(S(N)(=O)=O)c(C)n1-c1ccccc1 [Compound D] , give its measured pKi value.
A: 4.99
